System: SF-268
method: NCI tumour cell line growth inhibition, 48 h
Activity calls are given as the source filed them. Cut-off read from the data, not from the text of the source: active = GI50 up to about 1.1 µM and inactive = higher.
readout_type: GI50

The measured GI50 associated with N#Cc1nn(C2OC(COC(=O)c3ccccc3)C(OC(=O)c3ccccc3)C2OC(=O)c2ccccc2)c2nc[nH]c(=O)c12 (stereo not given) reads 43.1 µM (inactive)

// sample `COc1cc(Cc2cc(OC)c(OC)c(OC)c2)ccc1O` , its GI50 was 36.3 µM (inactive)

molecule `COc1c2ccsc2c(OC)c2ccsc12` , GI50 observed: > 100 µM (inactive)

Recorded result, CC(C)Cc1ccc(C(C)C(=O)N2CCN(/C=C/c3ccccc3)CC2)cc1 (stereo not given) , GI50: 16.3 µM (inactive)

Reported GI50 for `COc1c(-c2nc3ccc(N4CCN(C)CC4)nc3[nH]2)cc(OC)c2c1nc(CO)n2C` was > 100 µM (inactive)

Entry NC(=O)NCCCC(NC(=O)OCCCCCCn1ccc(=O)[nH]c1=O)C(=O)O (stereo not given) , GI50 reported as > 100 µM (inactive)

GI50 for CCC12CCCN(Cc3ccccc3)C1c1c([nH]c3ccccc13)C(C(=O)OC)C2 (stereo not given) is > 10 µM (inactive)

Lab book: GI50 of COc1cccc(NC(=O)CC(=O)N2NC(c3ccccc3)C(/N=N/c3cccc(C(=O)O)c3)C2=O)c1 (stereo not given) noted as > 100 µM (inactive)

molecule `COC(=O)Cc1cccc2c(=O)c(S(=O)(=O)NC(=O)Nc3ccc(Cl)cc3)c(-c3ccccc3)oc12` , GI50 observed: 73.5 µM (inactive)

Documented GI50 of `CC1S(=O)(=O)OCCOS1(=O)=O` : 32.1 µM (inactive)

Measured GI50 of CCN(CC)CCCC(C)Nc1c2ccc(Cl)cc2nc2ccc(OC)cc12 (stereo not given) : 2.24 µM (inactive)

Value of measured GI50 for the entry CC(=O)OC1=c2ccccc2=C(O)C2C1C=NN2C(C)=O (stereo not given) : > 100 µM (inactive)

Reported GI50 for `O=S(=O)(c1ccccc1)N1CCN(S(=O)(=O)c2ccccc2)c2ccccc21` was > 100 µM (inactive)

Form field GI50, entry `O=C[C@@H](CO)O[C@H](C=O)c1c[nH]c(=O)[nH]c1=O` : 102 µM (inactive)

Given item `N#Cc1c(O)nc2nn3c4ccc5ccccc5c4nnc3c2c1-c1ccc(Cl)cc1` , the value recorded as its GI50 is 2.51 µM (inactive)

// GI50 lookup, molecule = `Cc1cc2[nH]c(Cl)c(/C=C3\C(=O)Nc4ccccc43)c2cc1O` , result: 4.69 µM (inactive)

Record summary for `COc1cc(OC)cc(Oc2nc3c(N)cc(C(F)(F)F)cc3nc2-c2ccccc2)c1` : reported GI50 = 74.8 µM (inactive)

Measured GI50, CC(C)[Si](OC1=CCCCCC12C(=O)N(C)c1ccccc12)(C(C)C)C(C)C (stereo not given) : 18.4 µM (inactive)

The molecule Cc1ccc(C2c3c(n(C)c(=O)n(C)c3=O)OC(N(C)C)(N(C)C)C2(F)F)cc1 (stereo not given) showed GI50 equal to > 100 µM (inactive)

Lab note: C=C1C(=O)O[C@H]2C[C@@]3(COC(C)=O)C=COC=C(COC(=O)C(C)C)C3CC12 (stereo not given in full) gave GI50 of > 10 µM (inactive)

----------
System: EKVX
method: NCI tumour cell line growth inhibition, 48 h
The source made the active and inactive calls. Rule as the data show it: active = GI50 up to about 1.1 µM and inactive = higher.
I'd appreciate it if you could supply GI50 values for the items below.

For record COC(=N)c1csc(C2OC(CO)C(O)C2O)n1 (stereo not drawn) the listed GI50 is > 100 µM (inactive)

Briefly, GI50 measured for CCC(c1ccc(N(C)C)cc1)C1NC(=S)NC1=O (stereo not drawn) : 51.5 µM (inactive)

The reported GI50 of the compound `N=C(/C=C/c1ccc(-c2cn3cc(/C=C/C(=N)N4CCCC4)ccc3n2)cc1)N1CCCC1` was > 100 µM (inactive)

# compound O=C(O)c1c2c(cc3c1CC(Cc1ccccc1)C3=O)CCC2 (stereo not drawn) ; its GI50 = > 100 µM (inactive)

GI50 reading for `CSC1=C(SC)SC(=C2SC3=C(SC(=C4SCCS4)S3)S2)S1` : > 100 µM (inactive)

GI50 in this record for `CCOC(=O)/C(=C\c1cccs1)P(=O)(OCC)OCC` : 23.8 µM (inactive)

Sure, the documented GI50 for `CCOc1cc(/C=C2/C(C)=NN(c3cccc(Cl)c3)/C2=N/c2nc3ccccc3s2)ccc1O` is 38.4 µM (inactive)

Data point: `Cc1nc2ccccc2n1Cc1ccc(NC(=S)Nc2ccccc2)cc1` ; GI50 = 21.1 µM (inactive)

Record CSC(C1c2ccccc2N(C)c2[nH]c(=O)n(C)c(=O)c21)S(=O)(=O)c1ccc(C)cc1 (stereo not drawn) , field GI50: 33.6 µM (inactive)

// sample COc1cc2cc(C(=O)N3CC(COS(C)(=O)=O)c4ccc(NC(=O)OCc5ccccc5)cc43)[nH]c2c(OC)c1OC (stereo not drawn) , its GI50 was > 100 µM (inactive)

response.value for `CCOP(=O)(OCC)/C(C#N)=C/c1ccco1` (field: GI50) = > 100 µM (inactive)

Data point: `COc1ccc(NCC(=O)Nn2c(C)nc3ccc(S(=O)(=O)Nc4ccc(OC)cc4)cc3c2=O)cc1` ; GI50 = > 100 µM (inactive)

// sample CSc1nc(NC(C)C)c2c(n1)Sc1nc3ccccc3n1C2O (stereo not drawn) , its GI50 was 11.5 µM (inactive)

For record CC(=O)Nc1ccc(C(=O)NN2C(=O)C(Cl)C2c2cc(Br)ccc2O)cc1 (stereo not drawn) the listed GI50 is 28.8 µM (inactive)

Lookup result for `CCCC(=O)Nc1cn(COC)c(C(=O)N2C[C@H]3C[C@@]34C2=CC(=O)c2[nH]cc(C)c24)n1` ; measured GI50: 11.2 µM (inactive)

Measured GI50, Cc1ccc(C2c3c(n(C)c(=O)n(C)c3=O)OC(N(C)C)(N(C)C)C2(F)F)cc1 (stereo not drawn) : > 100 µM (inactive)

Reported GI50 ( `COC(=O)c1c(C(=O)OC)c2ccccn2c1-c1cc(OC)c(Br)c(=O)o1` ) = > 100 µM (inactive)

Measured GI50, COC(=O)CCC(NC(=S)N/N=C/c1ccco1)C(=O)OC (stereo not drawn) : > 100 µM (inactive)

----------
Tested on: PC-3
method: NCI tumour cell line growth inhibition, 48 h
Activity calls are given as the source filed them. Rule as the data show it: active = GI50 up to about 1.1 µM and inactive = higher.
readout_type: GI50

Lab book: GI50 of `CO/N=C(\C(=O)O/C(=N/C1CCCCC1)NC1CCCCC1)c1csc(NC(c2ccccc2)(c2ccccc2)c2ccccc2)n1` noted as > 10 µM (inactive)

Quick note, GI50 for `Cc1nc2sc3cccc(Cl)c3n2c(=O)c1/N=N/c1ccc(Cl)cc1` landed at 51.2 µM (inactive)

Consider `Cn1c2ccccc2c(=NNc2cccc(C(=O)O)c2)c2ccccc21` . Its measured GI50 is 4.92 µM (inactive)

// `COc1ccc(/C=C/C(=N/NC(=O)N/N=C(/C=C/c2ccc(OC)cc2)C(C)C)C(C)C)cc1` : GI50 value = 50.9 µM (inactive)

# GI50 of `N=C(/C=C/c1ccc(-c2cn3cc(/C=C/C(=N)N4CCCC4)ccc3n2)cc1)N1CCCC1` = > 100 µM (inactive)

The compound listed as COc1ccc2c(c1)CCCC(Br)C2=O (configuration not stated) has a reported GI50 of 3.9 µM (inactive)

Record summary for `CCOC(=O)c1cc2cc3c4c(c2oc1=O)CCCN4CCC3` : reported GI50 = 29 µM (inactive)

Field GI50 (entry `CN1CCN(CCCN2c3ccccc3Sc3ccc(C(F)(F)F)cc32)CC1` ) reads 4.58 µM (inactive)

Recorded result, `O=C(O)c1cc(O)nc(S)n1` , GI50: > 100 µM (inactive)

Lab note: `CCOC(=O)c1cn2c(n1)sc1cc(Cl)ccc12` gave GI50 of 30.6 µM (inactive)

# GI50 (compound: CCC12CCCN(Cc3ccccc3)C1c1c([nH]c3ccccc13)C(C(=O)OC)C2 (configuration not stated) ) is > 10 µM (inactive)

Reported GI50 of `NS(=O)(=O)c1ccc(/C=C/c2cccc(O)c2)cc1` : 36.7 µM (inactive)

The compound `NC(=O)NC(=O)c1ccc(NC(=O)CBr)cc1` showed GI50 equal to 1.96 µM (inactive)

Value of measured GI50 for the entry `O=c1[nH]nc(Cc2ccc(Cl)cc2)n1/N=C/c1c[nH]c2ccccc12` : > 100 µM (inactive)

Item: `CO/C=C(/C(=O)OC)c1ccccc1Oc1c(F)c(F)c(F)c(F)c1F` | GI50: 34.8 µM (inactive)

Field GI50 (entry `N#Cc1ccc(C(=O)/C=C/c2ccc(O)c(O)c2)cc1` ) reads 15.3 µM (inactive)

For this compound ( `CC(C)(C)OC(=O)NCCc1ccc(N)cc1` ), measured GI50 is > 100 µM (inactive)

Short answer for C=CCc1cc(C(Cc2ccccc2)NC(C)C)cc(OCc2ccccc2)c1OCc1ccccc1 (configuration not stated) : GI50 was 15.3 µM (inactive)

// GI50 value for `O=c1oc2ccc3ccccc3c2cc1-c1nnc(Nc2ccccc2)s1` : 17.1 µM (inactive)

The compound identified as `N#Cc1c(Nc2nc3ccccc3s2)c2ccccc2n2c1nc1ccccc12` registered its GI50 at > 100 µM (inactive)

Per the record, `O=C1Nc2ccccc2/C1=C1/Nc2ccccc2/C1=N/OCCOCCO` has GI50 of 2.36 µM (inactive)

Short answer for `CCOc1ccc2c(c1)/C(=C(\C(Cl)=C(Cl)Cl)[N+](=O)[O-])N2` : GI50 was > 100 µM (inactive)
